# Tested on: ATP;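 further: ATP exposure 15 min at 22 °C before imaging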
# Protocol details: switch fluorescence ratio, 500 uM ATP over buffer (Cy3 cluster intensity, sum of 5 cycles each) (fold (ratio)); higher = stronger signal-on switching upon ATP binding; sequences stand for … in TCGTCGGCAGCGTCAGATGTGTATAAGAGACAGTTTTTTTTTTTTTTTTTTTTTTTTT…TC
# Experimental conditions: aptamer strand: ATP DNA aptamer (quencher-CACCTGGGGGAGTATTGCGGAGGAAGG + anchor), 100 nM annealed; ATP concentration: 500 uM
Exercise: for every item that follows, state its recorded switch fluorescence ratio.
Numbers only.

sequence_string=AATATGAATT measured_value=1.01
sequence_string=ACTAAACTTG measured_value=1.01

Could you report switch fluorescence ratio for every entry in the following list?
1. TGTTTTGTGG
2. GGGTAGTGGT
3. GGGGGGACAA
4. GAAGCGGGGC
5. TTGGGCGGTG
6. ACTATTGGGT
7. TATTTATGGG
8. ATGGTGGCAT

1. 1.02
2. 1.01
3. 1
4. 1.36
5. 1.01
6. 0.988
7. 0.978
8. 1.01

Source: the supplement of paper PMC10126150
